Where these numbers come from: PubChem BioAssay AID651686

# Test system: OPRD1 counterscreen cells, luminescence, activation
# Test Summary: OPRD1 cell luminescence activation counter-screen – dose response, counter-screen for OPRM1-OPRD1 heterodimer activator project, late-stage follow-up (AID 651686)
Activity calls are given as the source filed them. No rule for the calls is given here.
Bench note: report the call from y = active, n = inactive

-- ask State the result this test recorded for CCOC(=O)C1(CCOc2ccccc2)CCN(Cc2cccn2-c2cccnc2)CC1 .
-- reply n

-- ask Would you mind telling me which call this test gave CCOC(=O)C1(CCc2ccccc2)CCN(Cc2ccccc2C)CC1 ?
-- reply n

-- ask Assay outcome for CCOC(=O)C1(CCc2ccccc2)CCN(Cc2cc(C)cc(C)c2)CC1 : what was it?
-- reply n

-- ask // outcome(item) with item = CCOC(=O)C1(CCc2ccccc2)CCN(Cc2ccc(NC(C)=O)cc2)CC1
-- reply y

-- ask What classification did CCOC(=O)C1(CCCc2ccccc2)CCN(Cc2cnn(C)c2)CC1 end up with in this test?
-- reply n

-- ask Check the results log: what was the call for CCOC(=O)C1(CC2CCCCO2)CCN(Cc2c(C)cc(C)cc2-n2cccn2)CC1 (stereo unspecified) ?
-- reply n

-- ask # lookup: test call for CCOC(=O)C1(Cc2ccccc2)CCN(Cc2cccn2-c2cccnc2)CC1
-- reply n

-- ask Test call for this compound, please: CCOC(=O)C1(Cc2ccccc2)CCN(Cc2cccn2-c2nccs2)CC1
-- reply n

-- ask # lookup: test call for CCOC(=O)C1(CCOc2ccccc2)CCN(Cc2ccc(O)c(OC)c2)CC1
-- reply n

-- ask Recorded test outcome, item OCC1(CCc2ccccc2)CCN(Cc2cc(F)ccc2-n2cccn2)CC1
-- reply n

-- ask Write down the call the test reported for this compound. Item: CCOC(=O)C1(CCc2ccccc2)CCN(Cc2ccc(OC(C)C)c(C#N)c2)CC1
-- reply n
